Where these numbers come from: patent US12258328B2

target: EGFR L858R/T790M/C797S (Homo sapiens, UniProt P00533, C797S/L858R/T790M)
Sequence (P00533 25-1210 T790M/C797S/L858R): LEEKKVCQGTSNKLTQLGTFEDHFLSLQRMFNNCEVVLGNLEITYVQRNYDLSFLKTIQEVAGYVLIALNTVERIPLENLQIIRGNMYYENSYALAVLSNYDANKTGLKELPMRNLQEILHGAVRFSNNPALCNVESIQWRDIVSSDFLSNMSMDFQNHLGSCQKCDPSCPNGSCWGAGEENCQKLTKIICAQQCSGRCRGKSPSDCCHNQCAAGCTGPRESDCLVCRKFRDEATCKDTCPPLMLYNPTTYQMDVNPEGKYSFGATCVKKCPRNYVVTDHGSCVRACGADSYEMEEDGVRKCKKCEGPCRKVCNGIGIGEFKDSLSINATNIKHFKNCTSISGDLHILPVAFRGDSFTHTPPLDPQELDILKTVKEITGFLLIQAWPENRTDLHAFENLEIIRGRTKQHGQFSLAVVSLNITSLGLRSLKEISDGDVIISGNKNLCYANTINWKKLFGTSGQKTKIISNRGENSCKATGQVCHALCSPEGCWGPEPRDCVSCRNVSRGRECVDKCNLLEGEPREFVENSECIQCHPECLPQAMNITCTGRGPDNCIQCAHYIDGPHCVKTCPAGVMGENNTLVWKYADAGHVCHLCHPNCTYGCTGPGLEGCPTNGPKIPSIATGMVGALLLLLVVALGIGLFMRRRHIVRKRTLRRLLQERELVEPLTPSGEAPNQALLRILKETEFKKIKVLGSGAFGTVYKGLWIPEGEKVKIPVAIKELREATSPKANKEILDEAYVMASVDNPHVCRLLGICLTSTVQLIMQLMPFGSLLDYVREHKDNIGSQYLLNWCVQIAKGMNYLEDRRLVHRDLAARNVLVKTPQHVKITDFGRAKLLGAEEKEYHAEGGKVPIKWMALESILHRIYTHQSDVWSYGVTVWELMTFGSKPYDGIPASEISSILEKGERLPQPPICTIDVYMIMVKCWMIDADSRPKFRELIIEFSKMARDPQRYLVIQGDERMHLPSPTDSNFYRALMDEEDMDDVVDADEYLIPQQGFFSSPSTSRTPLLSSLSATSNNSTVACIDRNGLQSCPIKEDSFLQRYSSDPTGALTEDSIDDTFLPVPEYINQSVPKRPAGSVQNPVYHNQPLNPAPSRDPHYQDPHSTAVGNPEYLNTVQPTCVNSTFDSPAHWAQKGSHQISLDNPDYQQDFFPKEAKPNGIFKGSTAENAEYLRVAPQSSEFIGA
assay_remarks: Biochemical EGFR kinase assay (Lance Ultra TR-FRET), triple mutant L858R/T790M/C797S
condition_details: ATP at Km; read-out: IC50 L858R/T790M/C797S, Km ATP
pIC50: −log10 of the molar value.
readout_name: pIC50

Completed entries (count: 3):
| compound | observed |
| --- | --- |
| CN1CCC(Oc2ccc(-c3cnc(Nc4ccnc(-c5cnn(S(=O)(=O)C6CC6)c5)n4)cc3N[C@H]3CC[C@@](C)(O)CC3)nc2)CC1 | 9.70 |
| CC(C)(F)c1ccc(-c2cnc(Nc3ccnc(-c4cnn(S(=O)(=O)C5CC5)c4)n3)cc2NC2CCC(F)(F)CC2)nc1 | 8.23 |
| CC(C)(O)c1ccc(-c2cnc(Nc3ccnc(-c4cnn(S(=O)(=O)C5CC5)c4)n3)cc2N[C@H]2CC[C@@H](F)CC2)nc1 | 9.05 |

(a) COC(c1ccc(-c2cnc(Nc3ccnc(-c4cnn(S(=O)(=O)C5CC5)c4)n3)cc2NC2CCC(CO)CC2)nc1)C(F)(F)F (stereo not shown)
(b) O=C(c1ccc(-c2cnc(Nc3ccnc(-c4cnn(S(=O)(=O)C5CC5)c4)n3)cc2N[C@H]2CC[C@@H](CO)CC2)nc1)N1CCOCC1
Req: // pick min by pIC50: a , b Reply with the label of the item you choose.
Resp: a

(P) CN1CCC(Oc2ccc(-c3cnc(Nc4ccnc(-c5cnn(S(=O)(=O)C6CC6)c5)n4)cc3NC3CCN(CCF)CC3)nc2)CC1
(Q) O=S(=O)(C1CC1)n1cc(-c2nccc(Nc3cc(N[C@H]4CC[C@@H](CO)CC4)c(-c4cc(OCCN5CCOCC5)ccn4)cn3)n2)cn1
Req: // compare: P vs Q , metric pIC50, want the smaller Kindly state the label of the option you pick.
Resp: Q

---

target: EGFR del19/T790M/C797S (Homo sapiens, UniProt P00533, C797S/DEL746-750/T790M)
Sequence (P00533 with tags, fused parts or gaps DEL746-750/T790M/C797S): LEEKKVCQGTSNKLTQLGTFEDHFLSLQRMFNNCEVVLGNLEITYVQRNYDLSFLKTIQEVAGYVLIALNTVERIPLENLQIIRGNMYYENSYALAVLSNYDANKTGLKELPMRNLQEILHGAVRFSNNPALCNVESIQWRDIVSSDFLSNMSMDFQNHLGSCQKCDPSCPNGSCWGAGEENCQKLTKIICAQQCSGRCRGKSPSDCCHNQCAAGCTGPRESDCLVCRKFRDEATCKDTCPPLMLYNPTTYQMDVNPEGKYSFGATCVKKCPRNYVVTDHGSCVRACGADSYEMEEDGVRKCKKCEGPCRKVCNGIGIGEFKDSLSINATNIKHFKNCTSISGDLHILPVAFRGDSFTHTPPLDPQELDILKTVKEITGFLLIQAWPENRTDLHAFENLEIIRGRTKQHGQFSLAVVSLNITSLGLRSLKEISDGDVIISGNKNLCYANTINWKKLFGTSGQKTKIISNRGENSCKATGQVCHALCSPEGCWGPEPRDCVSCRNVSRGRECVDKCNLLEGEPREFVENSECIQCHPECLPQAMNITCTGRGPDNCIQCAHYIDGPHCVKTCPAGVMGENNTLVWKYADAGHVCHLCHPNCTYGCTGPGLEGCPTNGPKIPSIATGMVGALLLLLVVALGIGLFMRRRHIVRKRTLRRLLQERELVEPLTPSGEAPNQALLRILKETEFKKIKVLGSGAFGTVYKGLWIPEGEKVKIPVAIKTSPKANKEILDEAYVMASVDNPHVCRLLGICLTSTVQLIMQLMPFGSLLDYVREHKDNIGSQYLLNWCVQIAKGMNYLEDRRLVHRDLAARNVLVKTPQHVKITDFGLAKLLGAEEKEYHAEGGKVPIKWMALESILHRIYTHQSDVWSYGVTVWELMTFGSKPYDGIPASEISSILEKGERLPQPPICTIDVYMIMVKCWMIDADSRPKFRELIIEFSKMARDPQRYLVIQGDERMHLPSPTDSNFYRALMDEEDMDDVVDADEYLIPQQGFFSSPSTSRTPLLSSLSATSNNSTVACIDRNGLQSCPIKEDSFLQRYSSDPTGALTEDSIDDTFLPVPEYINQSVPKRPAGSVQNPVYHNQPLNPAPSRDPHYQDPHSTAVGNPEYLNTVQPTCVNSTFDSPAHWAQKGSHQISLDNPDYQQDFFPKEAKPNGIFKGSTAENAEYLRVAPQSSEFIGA
assay_remarks: Biochemical EGFR kinase assay (Lance Ultra TR-FRET), triple mutant del19/T790M/C797S
condition_details: ATP at Km; read-out: IC50 del19/T790M/C797S, Km ATP
readout_name: IC50 (nM)

| compound | IC50 / nM |
| --- | --- |
| CC(C)(O)[C@H]1CC[C@@H](Nc2cc(Nc3ccnc(-c4cnn(S(=O)(=O)C5CC5)c4)n3)ncc2-c2cc(NC3CC(F)(F)C3)ccn2)CC1 [Example 215] | 9.1 |
| COC(c1ccc(-c2cnc(Nc3ccnc(-c4cnn(S(=O)(=O)C5CC5)c4)n3)cc2NC2CCC(CN(C)C)CC2)nc1)C(F)(F)F (centres unmarked) [Example 262] | 1.9 |
| CC(C)(O)[C@H]1CC[C@@H](Nc2cc(Nc3ccnc(-c4cnn(S(=O)(=O)C5CC5)c4)n3)ncc2-c2ccc(OCCN3CCC3)cn2)CC1 [Example 217] | 0.8 |
| CC(C)(F)c1ccc(-c2cnc(Nc3ccnc(-c4cnn(S(=O)(=O)C5CC5)c4)n3)cc2N[C@H]2CC[C@@H](F)CC2)nc1 [Example 238] | 28.4 |
| CC(C)(O)[C@H]1CC[C@@H](Nc2cc(Nc3ccnc(-c4cnn(S(=O)(=O)C5CC5)c4)n3)ncc2-c2cnc(F)cn2)CC1 [Example 186] | 3.8 |

(I) CC(C)(O)c1ccc(-c2cnc(Nc3ccnc(-c4cnn(S(=O)(=O)C5CC5)c4)n3)cc2N[C@H]2CC[C@@](C)(O)CC2)nc1 [Example 168]
(II) CC(C)(O)c1ccc(-c2cnc(Nc3ccnc(-c4cnn(S(=O)(=O)C5CC5)c4)n3)cc2NC2CCC(F)CC2)nc1 (centres unmarked) [Example 174]
(III) O=C(c1ccc(-c2cnc(Nc3ccnc(-c4cnn(S(=O)(=O)C5CC5)c4)n3)cc2N[C@H]2CC[C@@H](CO)CC2)nc1)N1CCOCC1 [Example 200]
Req: Sort low-to-high on IC50, please. Lab note: final answer is the ordered label list.
Resp: III, I, II
